// data source = ChEMBL document CHEMBL1795261

Biological target: Hypoxia-inducible factor 1-alpha (Homo sapiens)
Experiment: Inhibition of hypoxia-induced HIF1alpha activation in human Hep3B cells after 16 hrs by HRE-luciferase reporter assay
Settings: hep 3b2
ENDPOINT LABEL: IC50 (nM)

- COMPOUND: "CC(C)(O)[C@H]1Cc2cc3cc(-c4ccc(O)cc4)oc3cc2O1"
  UNIT STRING: "nM"
  IC50: 1
- COMPOUND: "CC1(C)Oc2cc3oc(-c4cc(O)cc(O)c4)cc3cc2C[C@H]1O"
  UNIT STRING: "nM"
  IC50: 10.7

[a] CC1(C)Oc2cc(OC(=O)c3ccc(OCc4ccccc4)cc3)ccc2CC1O (stereo not given)
[b] Cc1ccc(-c2cc3cc4c(cc3o2)OC(C(C)(C)O)C4)cc1 (stereo not given)
q: // compare measured IC50 between a and b ; output the lower one Give the label under which the chosen entry appears.
a: b
(b: 310 nM, a: 12900 nM)

====

Target: Hypoxia-inducible factor 1-alpha (Homo sapiens)
Assay: Inhibition of hypoxia-induced HIF1alpha activation in human Hep3B cells after 16 hrs by HRE-luciferase reporter assay
Conditions: hep 3b2
ENDPOINT LABEL: IC50 (nM)

Example entries begin here.
- MOLECULE: "CC1(C)Oc2cc(OC(=O)c3ccc(Br)cc3)ccc2CC1O (stereo unspecified)"
  TESTED SYSTEM: "Hypoxia-inducible factor 1-alpha (Homo sapiens)"
  IC50, nM: 16800
- MOLECULE: "CC1(C)Oc2cc(OC(=O)c3ccc(-c4cccc([N+](=O)[O-])c4)cc3)ccc2CC1O (stereo unspecified)"
  TESTED SYSTEM: "Hypoxia-inducible factor 1-alpha (Homo sapiens)"
  IC50, nM: 17500
- MOLECULE: "CC1(C)Oc2cc(OC(=O)c3ccc(-c4ccc(F)cc4F)cc3)ccc2CC1O (stereo unspecified)"
  TESTED SYSTEM: "Hypoxia-inducible factor 1-alpha (Homo sapiens)"
  IC50, nM: 17600
- MOLECULE: "CC(C)(O)C1Cc2cc3cc(-c4cc(F)cc(F)c4)oc3cc2O1 (stereo unspecified)"
  TESTED SYSTEM: "Hypoxia-inducible factor 1-alpha (Homo sapiens)"
  IC50, nM: 360
- MOLECULE: "COc1ccccc1-c1cc2cc3c(cc2o1)OC(C(C)(C)O)C3 (stereo unspecified)"
  TESTED SYSTEM: "Hypoxia-inducible factor 1-alpha (Homo sapiens)"
  IC50, nM: 580
- MOLECULE: "CC(C)(O)C1Cc2cc3cc(-c4ccc(OCc5ccccc5)cc4)oc3cc2O1 (stereo unspecified)"
  TESTED SYSTEM: "Hypoxia-inducible factor 1-alpha (Homo sapiens)"
  IC50, nM: 490

[A] COc1ccc(-c2cc3cc4c(cc3o2)OC(C(C)(C)O)C4)cc1 (stereo unspecified)
[B] CC(C)(O)C1Cc2cc3cc(-c4ccncc4)oc3cc2O1 (stereo unspecified)
q: Between these two entries, A and B , state which has the higher IC50. Give the label under which the chosen entry appears.
a: B

====

Target: Hypoxia-inducible factor 1-alpha (Homo sapiens, UniProt Q16665)
Sequence (Q16665 whole entry): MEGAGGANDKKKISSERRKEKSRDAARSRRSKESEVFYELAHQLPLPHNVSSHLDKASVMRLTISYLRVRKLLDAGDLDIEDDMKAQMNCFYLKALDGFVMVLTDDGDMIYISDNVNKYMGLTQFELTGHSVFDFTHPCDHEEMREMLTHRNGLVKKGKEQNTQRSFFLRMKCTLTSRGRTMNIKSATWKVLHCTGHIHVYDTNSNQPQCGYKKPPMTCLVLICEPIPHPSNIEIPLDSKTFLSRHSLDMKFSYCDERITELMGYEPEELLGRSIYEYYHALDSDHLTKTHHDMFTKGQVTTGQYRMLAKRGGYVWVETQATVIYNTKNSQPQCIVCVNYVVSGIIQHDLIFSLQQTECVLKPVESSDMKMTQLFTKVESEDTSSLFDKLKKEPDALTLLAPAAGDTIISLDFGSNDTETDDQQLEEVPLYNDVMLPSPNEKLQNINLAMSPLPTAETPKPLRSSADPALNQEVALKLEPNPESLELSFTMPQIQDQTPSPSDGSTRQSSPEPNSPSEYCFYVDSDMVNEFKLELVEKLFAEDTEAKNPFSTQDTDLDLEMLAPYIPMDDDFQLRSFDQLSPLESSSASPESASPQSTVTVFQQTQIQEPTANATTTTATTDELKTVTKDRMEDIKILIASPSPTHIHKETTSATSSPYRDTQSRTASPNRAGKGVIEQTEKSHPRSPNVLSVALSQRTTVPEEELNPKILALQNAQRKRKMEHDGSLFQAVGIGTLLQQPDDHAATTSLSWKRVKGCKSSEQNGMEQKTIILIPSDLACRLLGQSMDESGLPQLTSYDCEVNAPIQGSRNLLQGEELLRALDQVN
Assay: Inhibition of hypoxia-induced HIF1alpha activation in human Hep3B cells after 16 hrs by HRE-luciferase reporter assay
Details: hep 3b2
ENDPOINT LABEL: IC50 (µM)

Example entries begin here.
- COMPOUND: "CC(C)(O)[C@H]1Cc2cc3cc(-c4cc(O)cc(O)c4)oc3cc2O1"
  IC50 (µM): 0.00676
- COMPOUND: "CC1(C)Oc2cc3oc(-c4cc(O)cc(O)c4)cc3cc2CC1O (racemic) [(+/-)-MORACIN P]"
  IC50 (µM): 10.7
- COMPOUND: "COc1cccc(-c2cc3cc4c(cc3o2)OC(C(C)(C)O)C4)c1 (centres undefined)"
  IC50 (µM): 0.007

[a] CC1(C)Oc2cc(OC(=O)c3ccc(OCc4ccccc4)c(OCc4ccccc4)c3)ccc2CC1O (centres undefined)
[b] CC(C)(O)C1Cc2ccc(OC(=O)c3cc(OCc4ccccc4)cc(OCc4ccccc4)c3)cc2O1 (centres undefined)
q: Between these two entries, a and b , state which has the higher IC50. Give the label under which the chosen entry appears.
a: b
(b: 26.2 µM, a: 7.3 µM)
